biological target: Tyrosyl-tRNA synthetase, putative (Trypanosoma cruzi (strain CL Brener)); assay: Trypanosoma cruzi tyrosyl tRNA synthetase (TcYRS) _High Tyrosine SOP; assay type: functional; set-up: scale not given: in the data most compounds retested in dose-response had high values; conditions: 30 µM
Measured Property: Percent Effect (%)

INSERT INTO assay_data (molecule, readout_value) VALUES
  ('CCSCCC(=O)NS(=O)(=O)c1ccc2c(c1)OCCO2', 2.39),
  ('c1ccc(C(OCCNC2CCc3ncnn3C2)c2ccccc2)cc1 (stereo unspecified)', 0.98),
  ('O=C(CCc1ccccc1)N1CCn2cc(Cn3cncn3)nc2C1', 1.06),
  ('Cc1cc(N2CCC(c3nnc(CN(C)C)n3C3CC3)CC2)ccn1', 1.05),
  ('CC(=O)N1CC(=O)N(c2ccccc2)CC12CCN(Cc1nccs1)C2 (stereo unspecified)', 7.29),
  ('Cc1nc(CC(=O)N2CCCCC2c2ccn3ccnc3n2)cs1 (stereo unspecified)', -1.07),
  ('O=C(CN1CCCC(c2ccc(C(=O)O)cc2)C1)NC1CC1 (stereo unspecified)', 6.92),
  ('Cc1noc(C)c1C(=O)N1CC[C@H]2C[C@@H](c3nccs3)O[C@@H]2C1', 7.89),
  ('COc1cc(C(=O)N2CCCS2(=O)=O)ccc1C', 4.74),
  ('O=C(C1SCCc2sccc21)N1CCC(O)CC1 (stereo unspecified)', 5.94),
  ('CN(Cc1ccc(Cl)c(Cl)c1)C(=O)CNC(N)=O', 4.25);
